test_system: CDK2 (Homo sapiens)
Construct: endogenous in cells; host or cells: MKN1 cells
experiment_notes: CDK2 degradation in MKN1 cells (AlphaLISA)
Format: cell-based
experimental_conditions: 14 h incubation, read-out: CDK2 degradation 14 h: Mean external-Abs DC50
Provide the recorded DC50 for the entries that follow.

Enquiry: Which DC50 is listed for Cc1cc(S(=O)(=O)NC2(C)CCC(CN3CCN(c4ccc(C5CCC(=O)NC5=O)cc4F)CC3)CC2)ccc1Nc1ncc(C(F)(F)F)c(N2CCC[C@](C)(O)C2)n1 (some centres unmarked) [I-814] ?
Return: < 100 nM

Enquiry: Which DC50 is listed for Cc1cc(S(=O)(=O)NC2CCC(CN3CCN(c4ccc5c(c4)n(C4CC4)c(=O)n5C4CCC(=O)NC4=O)CC3)CC2)ccc1Nc1ncc2c(n1)N(C1CCCC(O)C1)C(=O)C21CC1 (centres unmarked) ?
Return: < 100 nM

Enquiry: Which DC50 is listed for Cc1cc(S(=O)(=O)NC2CCC(CN3CCN(c4c(F)cc(C5CCC(=O)NC5=O)cc4Cl)CC3)CC2)ccc1Nc1ncc(C(F)(F)F)c(N2CCCC(C)(O)C2)n1 (centres unmarked) ?
Return: < 100 nM

Enquiry: Which DC50 is listed for Cc1cc(S(=O)(=O)C2CCN(CCN3CCN(c4cccc5c4n(C)c(=O)n5C4CCC(=O)NC4=O)CC3=O)CC2)ccc1Nc1ncc2cc(Cl)c(=O)n(C3CCCC3)c2n1 (centres unmarked) ?
Return: 100 to 500 nM

Enquiry: Which DC50 is listed for Cc1cc(S(=O)(=O)C2CCC3(CC2)CN(CC2CCN(c4ccc5c(c4)n(C)c(=O)n5C4CCC(=O)NC4=O)CC2)C3)ccc1Nc1ncc2cc(Cl)c(=O)n(C3CCCC3)c2n1 (centres unmarked) ?
Return: 100 to 500 nM
